The origin of these recorded values is paper PMC4580987.

Known melting point of a selection of compounds

compound | melting point
Cc1ccc(C(=O)NCc2cn([C@@H](CC(=O)NO)Cc3ccc4ccccc4c3)nn2)cc1 [Compound 3] | 181.7 to 182.6 °C
O=C(C[C@@H](Cc1ccc2ccccc2c1)n1cc(CNC(=O)c2ccccc2)nn1)NO [Compound 2] | 192.8 to 194 °C
O=C(C[C@@H](Cc1ccc2ccccc2c1)n1cc(CNS(=O)(=O)c2ccc(F)cc2)nn1)NO [Compound 9] | 157.1 to 158.7 °C
COc1ccc(C(=O)NCc2cn([C@@H](CC(=O)NO)Cc3ccc4ccccc4c3)nn2)cc1 [Compound 4] | 178.3 to 179.6 °C
O=C(C[C@@H](Cc1ccc2ccccc2c1)n1cc(CNC(=O)C2CCCCC2)nn1)NO [Compound 5] | 176.6 to 177.9 °C

---

Known IC50 of a selection of compounds
biological target: hIDE (Homo sapiens, UniProt P14735); construct: made in house; assay: In vitro hIDE inhibition of insulin hydrolysis; type: biochemical; conditions: full insulin substrate; value (CI 95%); mean of 3 to 10 experiments; read-out: IC50 insulin hydrolysis
Sequence (P14735 whole entry): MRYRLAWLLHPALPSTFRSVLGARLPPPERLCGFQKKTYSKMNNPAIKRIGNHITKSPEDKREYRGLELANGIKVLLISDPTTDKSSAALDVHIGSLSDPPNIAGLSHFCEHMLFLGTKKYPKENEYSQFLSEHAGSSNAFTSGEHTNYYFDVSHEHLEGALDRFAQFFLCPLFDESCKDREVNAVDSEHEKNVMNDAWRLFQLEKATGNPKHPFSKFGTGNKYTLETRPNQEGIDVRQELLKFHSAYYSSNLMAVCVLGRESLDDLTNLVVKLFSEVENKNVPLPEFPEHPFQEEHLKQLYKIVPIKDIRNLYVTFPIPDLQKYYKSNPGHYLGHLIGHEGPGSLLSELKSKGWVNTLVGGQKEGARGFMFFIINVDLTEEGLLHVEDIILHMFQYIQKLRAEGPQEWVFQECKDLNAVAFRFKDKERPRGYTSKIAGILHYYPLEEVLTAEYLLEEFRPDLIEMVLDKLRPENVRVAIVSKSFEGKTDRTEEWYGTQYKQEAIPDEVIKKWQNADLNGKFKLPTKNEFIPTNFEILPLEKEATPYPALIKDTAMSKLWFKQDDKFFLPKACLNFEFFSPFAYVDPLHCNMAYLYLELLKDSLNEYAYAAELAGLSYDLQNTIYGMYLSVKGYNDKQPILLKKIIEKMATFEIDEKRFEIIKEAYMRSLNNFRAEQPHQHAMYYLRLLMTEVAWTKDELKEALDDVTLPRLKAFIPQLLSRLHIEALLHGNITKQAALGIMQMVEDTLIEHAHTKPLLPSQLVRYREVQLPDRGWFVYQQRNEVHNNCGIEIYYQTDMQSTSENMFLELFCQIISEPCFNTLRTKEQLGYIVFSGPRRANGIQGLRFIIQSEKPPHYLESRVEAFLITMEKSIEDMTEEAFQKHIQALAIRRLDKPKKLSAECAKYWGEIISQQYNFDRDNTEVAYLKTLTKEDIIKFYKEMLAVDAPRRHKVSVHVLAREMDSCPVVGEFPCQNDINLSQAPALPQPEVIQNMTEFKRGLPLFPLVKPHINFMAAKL

compound | target-entity | censor-symbol | IC50 (µM)
Cc1ccc(CC(=O)NCc2cn([C@@H](CC(=O)NO)Cc3ccc4ccccc4c3)nn2)cc1 [Compound 7] | hIDE (Homo sapiens, UniProt P14735) | = | 2.3
O=C(C[C@@H](Cc1ccc2ccccc2c1)n1nncc1CNC(=O)C1CCCCC1)NO [Compound 17] | hIDE (Homo sapiens, UniProt P14735) | = | 30
Cc1ccc(C(=O)NCc2cn([C@@H](CC(=O)NO)Cc3ccc4ccccc4c3)nn2)cc1 [Compound 3] | hIDE (Homo sapiens, UniProt P14735) | = | 6.7
O=C(C[C@@H](Cc1ccc2ccccc2c1)n1nncc1CNC(=O)c1ccc(F)cc1)NO [Compound 16] | hIDE (Homo sapiens, UniProt P14735) | = | 12.1
O=C(CC(Cc1ccccc1)n1cc(CNC(=O)c2ccc(F)cc2)nn1)NO (stereo not shown) [Compound 19] | hIDE (Homo sapiens, UniProt P14735) | > | 100
O=C(CC(Cc1ccc2ccccc2c1)c1nc(CNC(=O)c2ccccc2)no1)NO (stereo not shown) [Compound 11] | hIDE (Homo sapiens, UniProt P14735) | = | 9.6
COc1ccc(C(=O)NCc2cn([C@@H](CC(=O)NO)Cc3ccc4ccccc4c3)nn2)cc1 [Compound 4] | hIDE (Homo sapiens, UniProt P14735) | = | 3.4

---

target: human ACE (Homo sapiens, UniProt P12821)
Sequence (P12821 30-1306): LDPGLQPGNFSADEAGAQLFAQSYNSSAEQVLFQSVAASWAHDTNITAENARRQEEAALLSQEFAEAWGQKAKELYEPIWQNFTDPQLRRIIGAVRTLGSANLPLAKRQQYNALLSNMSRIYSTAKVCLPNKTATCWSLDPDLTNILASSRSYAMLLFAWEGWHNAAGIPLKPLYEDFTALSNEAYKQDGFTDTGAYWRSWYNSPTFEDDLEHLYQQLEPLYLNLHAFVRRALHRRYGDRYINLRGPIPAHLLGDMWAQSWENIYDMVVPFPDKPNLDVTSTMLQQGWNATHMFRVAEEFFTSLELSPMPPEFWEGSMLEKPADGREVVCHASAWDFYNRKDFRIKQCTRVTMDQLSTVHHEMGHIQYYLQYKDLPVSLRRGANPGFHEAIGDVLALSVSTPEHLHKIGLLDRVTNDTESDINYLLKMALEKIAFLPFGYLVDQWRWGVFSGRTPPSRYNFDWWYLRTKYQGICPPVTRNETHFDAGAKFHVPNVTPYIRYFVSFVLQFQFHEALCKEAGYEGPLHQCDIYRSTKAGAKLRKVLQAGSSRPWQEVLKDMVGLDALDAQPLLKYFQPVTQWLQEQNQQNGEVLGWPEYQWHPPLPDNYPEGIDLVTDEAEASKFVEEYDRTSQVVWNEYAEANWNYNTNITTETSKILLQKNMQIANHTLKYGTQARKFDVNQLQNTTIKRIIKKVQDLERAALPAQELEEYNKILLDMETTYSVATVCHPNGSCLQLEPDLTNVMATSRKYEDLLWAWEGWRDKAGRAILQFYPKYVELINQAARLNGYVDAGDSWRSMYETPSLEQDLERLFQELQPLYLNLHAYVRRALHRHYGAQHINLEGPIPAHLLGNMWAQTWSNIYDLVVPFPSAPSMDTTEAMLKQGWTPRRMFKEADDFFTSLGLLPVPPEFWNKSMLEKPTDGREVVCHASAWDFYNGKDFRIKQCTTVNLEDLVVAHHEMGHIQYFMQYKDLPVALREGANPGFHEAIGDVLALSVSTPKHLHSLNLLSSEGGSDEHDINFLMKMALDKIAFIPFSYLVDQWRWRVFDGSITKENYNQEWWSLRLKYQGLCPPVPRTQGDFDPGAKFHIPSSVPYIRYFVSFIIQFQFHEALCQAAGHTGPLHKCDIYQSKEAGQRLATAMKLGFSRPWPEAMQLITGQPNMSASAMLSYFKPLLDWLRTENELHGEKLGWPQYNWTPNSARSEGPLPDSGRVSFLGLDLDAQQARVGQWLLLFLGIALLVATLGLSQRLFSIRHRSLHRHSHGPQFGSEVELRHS
pIC50: −log10 of the molar value.
quantity-name: pIC50

compound | observed-measurement
O=C(C[C@@H](Cc1ccc2ccccc2c1)n1cc(CNC(=O)c2ccc(F)cc2)nn1)NO [Compound 1] | < 5.00

---

test: Stability in human plasma; type: in vitro ADME; conditions: both sexes, read-out: Plasma stability h (t1/2)
quantity-name: half-life at 10 μM

input-smiles | quantity-name | observed-measurement
O=C(C[C@@H](Cc1ccc2ccccc2c1)n1cc(CNC(=O)c2ccc(F)cc2)nn1)NO | half-life at 10 μM | > 24 h

---

target: hIDE (Homo sapiens); construct: made in house; experiment: In vitro hIDE inhibition of Aβ16–23-based substrate hydrolysis; format: biochemical

compound | target-entity | censor-symbol | IC50, µM
O=C(C[C@@H](Cc1ccc2ccccc2c1)n1nncc1CNC(=O)C1CCCCC1)NO [Compound 17] | hIDE (Homo sapiens) | > | 100
Cc1ccc(C(=O)NCc2cn(C(CC(=O)NO)Cc3ccccc3)nn2)cc1 (centres unmarked) [Compound 10] | hIDE (Homo sapiens) | > | 100
O=C(C[C@@H](Cc1ccc2ccccc2c1)c1nc(CNC(=O)c2ccc(F)cc2)no1)NO [Compound 12] | hIDE (Homo sapiens) | = | 29
O=C(C[C@@H](Cc1ccc2ccccc2c1)n1cc(CNC(=O)Cc2ccccc2)nn1)NO [Compound 6] | hIDE (Homo sapiens) | = | 3.2
O=C(C[C@H](Cc1ccc2ccccc2c1)n1cc(CNC(=O)c2ccc(F)cc2)nn1)NO [Compound 15] | hIDE (Homo sapiens) | = | 2.8
O=C(O)C[C@@H](Cc1ccc2ccccc2c1)n1cc(CNC(=O)c2ccc(F)cc2)nn1 [Compound 14] | hIDE (Homo sapiens) | > | 100
COc1ccc(C(=O)NCc2cn([C@@H](CC(=O)NO)Cc3ccc4ccccc4c3)nn2)cc1 [Compound 4] | hIDE (Homo sapiens) | = | 4.5
O=C(C[C@@H](Cc1ccc2ccccc2c1)n1nncc1CNC(=O)c1ccc(F)cc1)NO [Compound 16] | hIDE (Homo sapiens) | > | 100
